pIC50: −log10 of the molar value.
Compiled notes: published pIC50 values involving Prostaglandin G/H synthase 1 (Ovis aries, UniProt P05979).

Known results for compounds:
compound=COc1ccc(-n2nc(C(=O)Nc3ccc(Cl)cc3)nc2-c2cc(OC)c(OC)c(OC)c2)cc1 data_value="< 4.00"
compound="COc1ccc(C2CC(c3ccc(S(C)(=O)=O)cc3)=NN2c2ccc(S(N)(=O)=O)cc2)cc1 (stereo not given)" data_value=5.19
compound=Cc1nc2ccccc2c(=O)n1NC(=O)NC(C)(C)C data_value=4.46
compound=CS(=O)(=O)c1ccc(-n2nc(C(F)(F)F)cc2-c2ccc(I)cc2)cc1 data_value="< 5.40"
compound="S=C1NN2C(c3ccccc3)=CC(c3ccccc3Cl)N=C2S1 (stereo not given)" data_value="< 4.30"

Data request: Query pIC50 on Prostaglandin G/H synthase 1 (Ovis aries, UniProt P05979) for "Cc1nn(-c2ccc(C(F)(F)F)cc2)c2c1c(=O)oc1ccccc12"
Data returned: < 4.52

----------
Compiled notes: published IC50 values involving Prostaglandin G/H synthase 1 (Ovis aries, UniProt P05979).
SUBJECT_OF_TEST: Prostaglandin G/H synthase 1 (Ovis aries, UniProt P05979)
Sequence (P05979 whole entry): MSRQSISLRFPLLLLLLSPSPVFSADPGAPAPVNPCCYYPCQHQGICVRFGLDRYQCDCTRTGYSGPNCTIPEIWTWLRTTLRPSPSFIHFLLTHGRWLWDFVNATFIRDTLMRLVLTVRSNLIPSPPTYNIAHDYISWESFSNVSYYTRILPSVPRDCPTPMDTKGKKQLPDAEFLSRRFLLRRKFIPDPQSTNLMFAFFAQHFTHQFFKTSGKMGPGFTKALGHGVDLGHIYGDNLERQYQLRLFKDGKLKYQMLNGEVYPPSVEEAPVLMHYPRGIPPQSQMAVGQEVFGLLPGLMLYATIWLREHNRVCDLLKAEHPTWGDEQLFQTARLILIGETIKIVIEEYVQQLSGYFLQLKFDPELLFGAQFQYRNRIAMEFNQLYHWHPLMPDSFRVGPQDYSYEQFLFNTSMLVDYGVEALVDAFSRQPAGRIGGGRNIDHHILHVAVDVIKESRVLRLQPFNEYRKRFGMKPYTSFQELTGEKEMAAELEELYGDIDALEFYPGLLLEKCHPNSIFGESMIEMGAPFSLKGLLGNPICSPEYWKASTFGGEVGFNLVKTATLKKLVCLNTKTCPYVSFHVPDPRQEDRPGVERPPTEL
TEST_READOUT: IC50 (µM)

compound=O=C(Nc1ccccc1)Nc1nnc(-c2cccnc2)o1 subject_of_test="Prostaglandin G/H synthase 1 (Ovis aries, UniProt P05979)" data_value=9.37
compound=CS(=O)(=O)c1ccc(-c2nc3ccccc3c(-c3ccccc3)c2-c2ccccc2)cc1 subject_of_test="Prostaglandin G/H synthase 1 (Ovis aries, UniProt P05979)" data_value=10.2

1 = COC(=O)[C@H](Cc1ccccc1)n1cc(COc2nc(Cl)nc(Nc3ccc(N4CCOCC4=O)cc3)n2)nn1
2 = COc1ccc(-c2nn(-c3ccccc3)cc2C2SC(N(C(C)=O)c3ccccc3)=NN2C(C)=O)cc1 (centres undefined)
3 = CN(c1ccc(Cl)cc1)S(=O)(=O)c1ccc(N)cc1
4 = CC(C)c1cc(-c2ccc(F)cc2)c(-c2ccc(S(C)(=O)=O)cc2)c(=O)o1
5 = C=CCC1=C[C@]2(OC)C(=O)C([C@@H]1O)[C@H](c1cc(OC)c(OC)c(OC)c1)[C@H]2C
Data request: Rank by IC50 (largest to smallest). Write the labels in rank order as requested.
Data returned: 5, 2, 4, 1, 3
(5: 216 µM, 2: 64.7 µM, 4: 15.7 µM, 1: 8 µM, 3: 3.2 µM)

----------
Compiled notes: published IC50 values involving Prostaglandin G/H synthase 1 (Ovis aries, UniProt P05979).
TEST_READOUT: IC50 (µM)

Known results for compounds:
compound=c1cc(-c2ccc(Nc3nc(N4CCOCC4)nc(N4CCOCC4)n3)cc2)[nH]n1 test_readout=IC50 data_value=5.26
compound=Nc1nc(N)c(F)c(-c2nc(-c3ccc(F)cc3)c(-c3ccncc3)s2)c1F test_readout=IC50 data_value=100
compound="CC1SC(c2ccc(S(C)(=O)=O)cc2)N(Cc2ccccc2)C1=O (racemic)" test_readout=IC50 data_value=75.6

a = CS(=O)(=O)c1ccc(-c2nnnn2-c2ccc(Cl)cc2)cc1
b = Cc1cc2cc(-c3ccc(C(C)C(=O)O)cc3)ccc2[nH]1 (stereo not given)
Data request: Given the two records a and b , choose the one whose IC50 value is lower. Reply with the label of the item you choose.
Data returned: b

----------
pIC50: −log10 of the molar value.
Compiled notes: published pIC50 values involving Prostaglandin G/H synthase 1 (Ovis aries, UniProt P05979).
TEST_READOUT: pIC50

compound=CS(=O)(=O)c1ccc(C(=O)c2cccn2-c2ccccc2F)cc1 subject_of_test="Prostaglandin G/H synthase 1 (Ovis aries, UniProt P05979)" data_value=3.74

I = COc1ccc(-c2cc(-c3ccc(S(C)(=O)=O)cc3)c(-c3cccnc3)c(=O)o2)cc1
II = COc1ccc(-c2c(-c3ccc(N)cc3)noc2C)cc1
III = Cc1ccc(Nc2c(Cl)cc(Cl)cc2Cl)c(CC(=O)O)c1
Data request: Rank by pIC50 (largest to smallest). Write the labels in rank order as requested.
Data returned: III, I, II
(III: 7.11, I: 6.82, II: 4.64)

----------
SUBJECT_OF_TEST: Prostaglandin G/H synthase 1 (Ovis aries, UniProt P05979)
Sequence (P05979 whole entry): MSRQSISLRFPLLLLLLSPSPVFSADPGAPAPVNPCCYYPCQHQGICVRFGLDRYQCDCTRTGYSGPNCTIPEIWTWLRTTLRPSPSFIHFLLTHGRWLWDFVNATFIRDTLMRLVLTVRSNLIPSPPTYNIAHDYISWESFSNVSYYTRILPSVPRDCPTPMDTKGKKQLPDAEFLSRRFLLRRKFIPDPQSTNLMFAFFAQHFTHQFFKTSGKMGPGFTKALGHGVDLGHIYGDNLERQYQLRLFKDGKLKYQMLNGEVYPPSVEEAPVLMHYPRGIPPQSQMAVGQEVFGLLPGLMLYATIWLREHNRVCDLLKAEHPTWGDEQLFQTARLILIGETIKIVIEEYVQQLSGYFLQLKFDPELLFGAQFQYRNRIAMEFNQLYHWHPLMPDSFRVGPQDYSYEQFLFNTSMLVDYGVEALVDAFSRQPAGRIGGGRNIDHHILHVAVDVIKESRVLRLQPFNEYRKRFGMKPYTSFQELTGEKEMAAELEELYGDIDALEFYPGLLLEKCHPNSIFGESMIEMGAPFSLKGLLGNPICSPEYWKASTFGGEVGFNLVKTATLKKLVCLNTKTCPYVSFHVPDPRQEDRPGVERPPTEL
pIC50: −log10 of the molar value.
Compiled notes: published pIC50 values involving Prostaglandin G/H synthase 1 (Ovis aries, UniProt P05979).
TEST_READOUT: pIC50

structure_as_smiles=COC1(c2cccc(CS(=O)(=O)Nc3ccc(Cl)cc3OCc3ccccc3)c2)CCOCC1 subject_of_test="Prostaglandin G/H synthase 1 (Ovis aries, UniProt P05979)" data_value=4.61

P = COc1ccc(-c2noc(CF)c2-c2ccc(OC)cc2)cc1
Q = O=C1COCCN1c1ccc(Nc2nc(Cl)nc(Nc3ccc(O)cc3)n2)cc1
R = CS(=O)(=O)c1ccc(-c2c(-c3cccnc3)cc(-c3ccccc3)oc2=O)cc1
Data request: Rank by pIC50 (largest to smallest). Write the labels in rank order as requested.
Data returned: P, R, Q
(P: 6.46, R: 5.52, Q: 5.00)

----------
Compiled notes: published IC50 values involving Prostaglandin G/H synthase 1 (Ovis aries).
TEST_READOUT: IC50 (µM)

a = COC(=O)COc1ccc(/C=C/c2ccc(Cl)cc2)cc1
b = Cc1ccc(Nc2nc(-c3ccc(Cl)cc3)nc3sc4c(c23)CCCC4)cc1
c = Cc1ccc(Cl)c(Nc2ccccc2C(=O)NCCCCl)c1Cl
Data request: Ascending by IC50, please. Write the labels in rank order as requested.
Data returned: c, b, a
(c: 0.06 µM, b: 8.2 µM, a: 41 µM)

----------
Compiled notes: published IC50 values involving Prostaglandin G/H synthase 1 (Ovis aries, UniProt P05979).
TEST_READOUT: IC50 (µM)

I = C#Cc1cccc(Nc2ncnc3cc(OCCOC(=O)c4ccccc4OC(C)=O)c(OCCOC(=O)c4ccccc4OC(C)=O)cc23)c1
II = Cc1ccc(C(=O)Nc2ccc(F)cc2)cn1
Data request: Pick one: I or II . Which has the bigger IC50 number? Reply with the label of the item you choose.
Data returned: II
(II: 70 µM, I: 39.6 µM)

P = COc1cc(C2=NOC3(Cc4ccccc4C3=O)C2c2ccc(S(C)(=O)=O)cc2)cc(OC)c1OC (stereo not given)
Q = NC(=S)N/N=C\c1cn(-c2ccccc2)nc1-c1ccc(Br)cc1
Data request: Given the two records P and Q , choose the one whose IC50 value is lower. Reply with the label of the item you choose.
Data returned: P
(P: 12.8 µM, Q: 60.3 µM)
